- Tested on: NPC Chinese Hamster Ovary (CHO) cells
- test method notes: Relative lysosomal volume via LysoTracker in NPC CHO cells
- Assay type: cell-based
- test parameters: 1 mM, 72 hours, p <0.01 versus untreated NPC1-null, FIG. 1
- Method: NPC Chinese Hamster Ovary (CHO) cells were treated in vitro for 72 hours with 1 mM of acetyl-DL-leucine, acetyl-L-leucine, acetyl-D-leucine, DL-leucine, L-leucine, and D-leucine, respectively. Relative lysosomal volume was quantified via LysoTracker. Data presented in FIG. 1 show the results for each treatment, with lysosomal volume expressed as fold change relative to untreated wild-type […]. The asterisks (**) indicate a p-values of <0.01 versus untreated NPC1-null.
measure: lysosomal volume (LysoTracker), fold change relative to untreated wild-type

Some molecules with recorded lysosomal volume (LysoTracker), fold change relative to untreated wild-type:
CC(C)C[C@H](N)C(=O)O: significantly reduced
CC(C)C[C@@H](N)C(=O)O: significantly reduced
CC(=O)N[C@H](CC(C)C)C(=O)O: significantly reduced
CC(=O)NC(CC(C)C)C(=O)O (racemic): significantly reduced
CC(=O)N[C@@H](CC(C)C)C(=O)O: significantly reduced

Read the next record carefully.
input: Which lysosomal volume (LysoTracker), fold change relative to untreated wild-type value is on record for CC(C)CC(N)C(=O)O (racemic) ?
output: significantly reduced
